Parameter RP-LC retention time: see the listing below.
- test name: gradient 5% acetonitrile 3 min, to 50% in 2 min, to 85% in 15 min, held 3 min, 100 µL/min
- test context: column: Zorbax Extend-C18 2.1 x 50 mm; eluents: water / acetonitrile, 0.1% formic acid
The answer is to be given in s; state only the numeric part.

Lookup result for Cc1ccc(-n2cc3c(N4CCCC(C(=O)NCc5ccc(C)c(C)c5)C4)ncnc3n2)cc1 (stereo unspecified) ; measured RP-LC retention time: 772

Lookup result for "Cc1cc2nc(C(=O)N3CCN(c4ccccn4)CC3)c(=O)n(C)c2cc1C" ; measured RP-LC retention time: 597

Lookup result for "CCCCC(=O)N1c2nc(-c3ccc(F)cc3)nn2C2(CCCCC2)[C@@H]2CCCC[C@@H]21" ; measured RP-LC retention time: 1210

Lookup result for "CCN(C(=O)Cc1csc2nc(-c3ccccc3)cn12)c1ccccc1" ; measured RP-LC retention time: 852

Lookup result for "Cc1oc(-c2ccc(NC(=O)CC(C)(C)C)cc2)nc1Cn1cccn1" ; measured RP-LC retention time: 883

Lookup result for Fc1ccc(CN2CCC(N3CC4(CCCCC4)C3c3ccncc3)CC2)cc1F (stereo unspecified) ; measured RP-LC retention time: 604

----------
- test name: gradient 5% acetonitrile 3 min, to 50% in 2 min, to 85% in 15 min, held 3 min, 100 µL/min
- test context: column: Zorbax Extend-C18 2.1 x 50 mm; eluents: water / acetonitrile, 0.1% formic acid
Label True when RP-LC retention time >= 700 s; otherwise False.

Req: Quick check, RP-LC retention time >= 700 s? "Cc1ccc(CN2CCC(N3CC(F)(F)C[C@H]3COc3cccnc3)CC2)s1"
Resp: False

Req: Quick check, RP-LC retention time >= 700 s? "CCN1C(=O)COc2ccc(-c3csc(NC(=O)c4cccc(Br)c4)n3)cc21"
Resp: True

Req: Quick check, RP-LC retention time >= 700 s? CCOC(=O)C1=C(CN2CCc3ccccc3C2)NC(=O)NC1c1cccs1 (stereo unspecified)
Resp: False

----------
Parameter RP-LC retention time: see the listing below.
- test name: gradient 5% acetonitrile 3 min, to 50% in 2 min, to 85% in 15 min, held 3 min, 100 µL/min
- test context: column: Zorbax Extend-C18 2.1 x 50 mm; eluents: water / acetonitrile, 0.1% formic acid
The answer is to be given in s; state only the numeric part.

Lookup result for "O=C(Nc1ncc(SCCN2CCCC2)s1)[C@]1(c2ccc(S(=O)(=O)C3CC3)cc2)C[C@H]1C1CCCCC1" ; measured RP-LC retention time: 854

Lookup result for CC(C)NC(=O)c1ccc(OCC2CCCN2C(=O)c2ccc(C(F)(F)F)cc2)cc1 (configuration not stated) ; measured RP-LC retention time: 914

Lookup result for O=C(NC1CCCCC1)C1CCN(C(=O)c2ncn3c2COC(c2ccc(Cl)cc2)C3)CC1 (configuration not stated) ; measured RP-LC retention time: 844

Lookup result for "COc1ccccc1NC(=O)CSc1ncc(S(=O)(=O)c2ccccc2)c(N)n1" ; measured RP-LC retention time: 790

----------
Parameter RP-LC retention time: see the listing below.
- test name: gradient 5% acetonitrile 3 min, to 50% in 2 min, to 85% in 15 min, held 3 min, 100 µL/min
- test context: column: Zorbax Extend-C18 2.1 x 50 mm; eluents: water / acetonitrile, 0.1% formic acid
The answer is to be given in s; state only the numeric part.

O=C(COc1ccccc1)NCc1c(-c2ccccc2)nc2n1CCS2 :: 678
COc1cc(NC(=O)N2CCCN(c3ccc(=O)n(-c4ccc(F)cc4)n3)CC2)cc(OC)c1OC :: 702

Okay, next one:
Lookup result for "CCN(C(=O)Cn1nc2n(c1=O)CCCCC2)c1ccccc1" ; measured RP-LC retention time: 709

----------
- test name: gradient 5% acetonitrile 3 min, to 50% in 2 min, to 85% in 15 min, held 3 min, 100 µL/min
- test context: column: Zorbax Extend-C18 2.1 x 50 mm; eluents: water / acetonitrile, 0.1% formic acid
Label MET when RP-LC retention time >= 800 s; otherwise NOT MET.

Recorded results for 5 molecules are shown here.
COc1ccc(CCC(=O)N2CCC(c3cc(N)on3)CC2)cc1 :: NOT MET
O=C(Nc1cccc(Br)c1)C1CCN(c2cc(N3CCCC3)ncn2)CC1 :: NOT MET
CCCN(CC1CCOC1)C(=O)c1cccc(Br)c1 (centres undefined) :: MET
FC1(F)CN[C@H](c2nc(-c3ccncc3)no2)C1 :: NOT MET
COc1ccc(NC(=O)c2cnc(N3CCC4(CC3)OCCO4)nc2N)cc1 :: NOT MET

Req: Quick check, RP-LC retention time >= 800 s? "CC1=C(c2ccc(F)cc2)S(=O)(=O)N=C1N1CCC(NC(=O)CCC(C)C)CC1"
Resp: MET

Req: Quick check, RP-LC retention time >= 800 s? COC(=O)Nc1ccc(S(=O)(=O)N2CCCC(C(F)(F)F)C2)cc1 (centres undefined)
Resp: MET

----------
- test name: gradient 5% acetonitrile 3 min, to 50% in 2 min, to 85% in 15 min, held 3 min, 100 µL/min
- test context: column: Zorbax Extend-C18 2.1 x 50 mm; eluents: water / acetonitrile, 0.1% formic acid
Label yes (1) when RP-LC retention time >= 800 s; otherwise no (0).

Recorded results for 3 molecules are shown here.
O=C(NC1CCCc2c1[nH]c1c(Cl)cccc21)c1ccncc1 (stereo not drawn) :: yes (1)
COCc1nnc(-c2ccc(F)cc2)o1 :: no (0)
O=C(NCC1CCCO1)N1CCCn2nc(-c3cccs3)cc2C1 (stereo not drawn) :: no (0)

Req: Quick check, RP-LC retention time >= 800 s? "N#Cc1ccc(Cl)cc1NC(=O)c1cccn(Cc2cccc(C(F)(F)F)c2)c1=O"
Resp: yes (1)

Req: Quick check, RP-LC retention time >= 800 s? "Cc1ccc(CNC(=O)CN2C(=O)NC3(CCCCC3)C2=O)cc1"
Resp: no (0)

Req: Quick check, RP-LC retention time >= 800 s? "Cc1ccc(CNC(=O)c2cn(C)nc2S(=O)(=O)N2CCSCC2)cc1"
Resp: yes (1)

Req: Quick check, RP-LC retention time >= 800 s? "CCCCn1nnc(NCc2ccc(-c3cc(Cl)ccc3Cl)o2)n1"
Resp: yes (1)

Req: Quick check, RP-LC retention time >= 800 s? "CSc1ccc(-c2nc3cnccn3c2Nc2cccc(C(=O)O)c2)cc1"
Resp: no (0)

Req: Quick check, RP-LC retention time >= 800 s? "CCn1cnc(S(=O)(=O)N2CCC(C(=O)NCc3ccccn3)CC2)c1"
Resp: no (0)

Req: Quick check, RP-LC retention time >= 800 s? "COCCN(CCOC)c1nc(-c2ccc([N+](=O)[O-])cc2)nc2ccccc12"
Resp: yes (1)

----------
- test name: gradient 5% acetonitrile 3 min, to 50% in 2 min, to 85% in 15 min, held 3 min, 100 µL/min
- test context: column: Zorbax Extend-C18 2.1 x 50 mm; eluents: water / acetonitrile, 0.1% formic acid
Label Satisfied when RP-LC retention time >= 700 s; otherwise Not satisfied.

Recorded results for 2 compounds are shown here.
O=C(NCc1cccnc1)C1CN(C(=O)c2cccs2)CC12CCCCC2 (stereo not drawn) :: Not satisfied
O=C(c1cccnc1N1CCNC(c2ccccc2)C1)N1CCSCC1 (stereo not drawn) :: Not satisfied

Req: Quick check, RP-LC retention time >= 700 s? "COc1ccc(-c2csc(NC(=O)c3ccc(Cl)c(Cl)c3)n2)cc1"
Resp: Satisfied

Req: Quick check, RP-LC retention time >= 700 s? "COC(=O)c1cc2ccsc2n1CC(=O)Nc1ccc(F)cc1F"
Resp: Satisfied

Req: Quick check, RP-LC retention time >= 700 s? Cc1ccc(NC(=O)C2CC(=O)N(c3cccc(NC(=O)C4CCC4)c3)C2)cc1Cl (stereo not drawn)
Resp: Satisfied

Req: Quick check, RP-LC retention time >= 700 s? O=[N+]([O-])c1ccccc1OCC(O)CN1CCN(c2ccccc2F)CC1 (stereo not drawn)
Resp: Not satisfied

Req: Quick check, RP-LC retention time >= 700 s? N#Cc1cccc(CN2CCCCC2c2nncn2CC2CC2)c1 (stereo not drawn)
Resp: Not satisfied

----------
- test name: gradient 5% acetonitrile 3 min, to 50% in 2 min, to 85% in 15 min, held 3 min, 100 µL/min
- test context: column: Zorbax Extend-C18 2.1 x 50 mm; eluents: water / acetonitrile, 0.1% formic acid
Label met when RP-LC retention time >= 800 s; otherwise not met.

Req: Quick check, RP-LC retention time >= 800 s? "Cc1nc2cc(-c3noc(C4(c5ccccc5)CC4)n3)ccc2o1"
Resp: met

Req: Quick check, RP-LC retention time >= 800 s? "Cn1cccc1C(=O)NCCn1c(=O)n(Cc2ccccc2)c2cccnc21"
Resp: not met

Req: Quick check, RP-LC retention time >= 800 s? "CCOC(=O)c1ccc(Nc2c(-c3ccc(SC)cc3)nc3cnccn23)cc1"
Resp: met

Req: Quick check, RP-LC retention time >= 800 s? "Cc1ccc(C)c(NC(=O)N(C)CCc2noc(COc3ccccc3F)n2)c1"
Resp: met

Req: Quick check, RP-LC retention time >= 800 s? CN1C(=O)c2cc(C(=O)N3CCCC3)nn2CC1(C)C(=O)NCc1ccc(F)cc1 (centres undefined)
Resp: not met

Req: Quick check, RP-LC retention time >= 800 s? CC(=O)N1CCN(c2nc3c(s2)CC(C(=O)Nc2cccc4c2CCCC4)CC3)CC1 (centres undefined)
Resp: not met

Req: Quick check, RP-LC retention time >= 800 s? CCCCC(CC)C(=O)Nc1nc(-c2ccc(C(C)C)cc2)cs1 (centres undefined)
Resp: met

Req: Quick check, RP-LC retention time >= 800 s? "CCN1C(=O)CN(C(=O)c2ccsc2)CC12CCOCC2"
Resp: not met
